Where do these numbers come from? They come from ChEMBL document CHEMBL5500349.

EXPERIMENT_SUMMARY: Cytotoxicity against mouse HT-22 cells assessed as cell viability at 100 uM incubated for 48 to 72 hrs by MTT assay
Assay type: toxicity, cell-based
DETAILS: time 48-72 hrs, read-out: Activity
MEASURED_QUANTITY: viability at 100 µM (%)
Respond with the bare value in %.

viability at 100 µM in this record for Cc1ncsc1-c1ccc([C@H](C)NC(=O)[C@@H]2C[C@@H](O)CN2C(=O)[C@@H](NC(=O)CCCCc2cn(CCOCCNC(=O)[C@H](C)CC(=O)C[C@@H](C)[C@H]3C[C@H](O)[C@@]4(C)C5=C(C(=O)C[C@]34C)[C@@]3(C)CCC(=O)C(C)(C)[C@@H]3C[C@@H]5O)nn2)C(C)(C)C)cc1 : 97

viability at 100 µM in this record for Cc1ncsc1-c1ccc([C@H](C)NC(=O)[C@@H]2C[C@@H](O)CN2C(=O)[C@@H](NC(=O)CCCCc2cn(CCOCCOCCOCCOCCNC(=O)[C@H](C)CC(=O)C[C@@H](C)[C@H]3C[C@H](O)[C@@]4(C)C5=C(C(=O)C[C@]34C)[C@@]3(C)CCC(=O)C(C)(C)[C@@H]3C[C@@H]5O)nn2)C(C)(C)C)cc1 : 91.3

viability at 100 µM in this record for C[C@H](CC(=O)C[C@@H](C)[C@H]1C[C@H](O)[C@@]2(C)C3=C(C(=O)C[C@]12C)[C@@]1(C)CCC(=O)C(C)(C)[C@@H]1C[C@@H]3O)C(=O)NCc1cn(CCCNc2cccc3c2C(=O)N(C2CCC(=O)NC2=O)C3=O)nn1 (some centres undefined) : 96.7

viability at 100 µM in this record for C[C@H](CC(=O)C[C@@H](C)[C@H]1C[C@H](O)[C@@]2(C)C3=C(C(=O)C[C@]12C)[C@@]1(C)CCC(=O)C(C)(C)[C@@H]1C[C@@H]3O)C(=O)NCCOCCOCCOCCOCCn1cc(CNc2cccc3c2C(=O)N(C2CCC(=O)NC2=O)C3=O)nn1 (some centres undefined) : 91.9

---

Test system: MCF7
EXPERIMENT_SUMMARY: Antiproliferative activity against human MCF7 cells assessed as cell viability at 100 uM incubated for 48 to 72 hrs by MTT assay
Type: functional
DETAILS: time 48-72 hrs, read-out: Activity
Record form. Attribute: viability at 100 µM. Fill in for each entry.
Respond with the bare value in %.

viability at 100 µM in this record for C[C@H](CC(=O)C[C@@H](C)[C@H]1C[C@H](O)[C@@]2(C)C3=C(C(=O)C[C@]12C)[C@@]1(C)CCC(=O)C(C)(C)[C@@H]1C[C@@H]3O)C(=O)NCCOCCOCCn1cc(CNc2cccc3c2C(=O)N(C2CCC(=O)NC2=O)C3=O)nn1 (stereo partly drawn) : 76.8

viability at 100 µM in this record for C[C@H](CC(=O)C[C@@H](C)[C@H]1C[C@H](O)[C@@]2(C)C3=C(C(=O)C[C@]12C)[C@@]1(C)CCC(=O)C(C)(C)[C@@H]1C[C@@H]3O)C(=O)NCc1cn(CCOCCOCCOCCNc2cccc3c2C(=O)N(C2CCC(=O)NC2=O)C3=O)nn1 (stereo partly drawn) : 83.4

viability at 100 µM in this record for COc1cccc2c1C(=O)c1c(O)c3c(c(O)c1C2=O)C[C@@](O)(C(=O)CO)C[C@@H]3O[C@H]1C[C@H](N)[C@H](O)[C@H](C)O1 : 57.5
